src = patent US20130035232A1

test system: asparaginase I; experiment: Asparaginase I production on supplemented medium; type: cell-based; settings: Brevibacterium ketoglutaricum ATCC 21533; 30 °C; YEMEA, 7.5 g/L urea, 10 ppm cobalt
Listed here: items and their measured Asparaginase I Level Based on Growth Medium Supplementation.
readout: Asparaginase I Level Based on Growth Medium Supplementation (Units/mg cdw)

compound: NC(=O)CC[C@H](N)C(=O)O [Glutamine, glutamine]
recorded-value: 20.3

compound: C=CC#N [Acrylonitrile, acrylonitrile, reference compound]
recorded-value: 14.6

compound: C=CC(N)=O [AMD, acrylamide, reference compound]
recorded-value: 15.4

compound: NC(=O)C[C@H](N)C(=O)O [Asparagine, asparagine]
recorded-value: 19.1
